Hello, the source for this data is the supplement of paper PMC6555819, in case you need it.

tested on: PXR homodimer (NR concentration 270 nM); test: PBM binding z-score (relative to random genomic background probes); higher = stronger binding; sequences stand for … in GC…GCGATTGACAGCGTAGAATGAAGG
measured.endpoint: PBM binding z-score
Give bare numbers.

Please review the entries below; each comes with its answer.
[
  {
    "sequence.chain": "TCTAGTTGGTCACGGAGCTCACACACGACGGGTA",
    "target.desc": "PXR homodimer (NR concentration 270 nM)",
    "PBM binding z-score": -0.237
  },
  {
    "sequence.chain": "CAAACTAGGTCACAGAGTTCAAAGTCCGTGCGTA",
    "target.desc": "PXR homodimer (NR concentration 270 nM)",
    "PBM binding z-score": 14.2
  },
  {
    "sequence.chain": "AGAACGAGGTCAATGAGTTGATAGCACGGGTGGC",
    "target.desc": "PXR homodimer (NR concentration 270 nM)",
    "PBM binding z-score": 8.63
  },
  {
    "sequence.chain": "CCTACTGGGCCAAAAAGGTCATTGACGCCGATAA",
    "target.desc": "PXR homodimer (NR concentration 270 nM)",
    "PBM binding z-score": 2.1
  },
  {
    "sequence.chain": "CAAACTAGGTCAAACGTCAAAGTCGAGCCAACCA",
    "target.desc": "PXR homodimer (NR concentration 270 nM)",
    "PBM binding z-score": 0.241
  }
]

Take each entry in turn and give its PBM binding z-score.
1. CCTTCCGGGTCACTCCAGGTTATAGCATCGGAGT
2. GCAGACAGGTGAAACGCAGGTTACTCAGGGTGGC
3. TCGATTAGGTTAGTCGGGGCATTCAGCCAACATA
4. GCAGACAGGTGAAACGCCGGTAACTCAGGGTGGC
5. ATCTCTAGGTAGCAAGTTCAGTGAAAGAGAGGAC
6. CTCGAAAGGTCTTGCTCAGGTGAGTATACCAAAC

[A]
1: 0.335; 2: -0.507; 3: 0.0297; 4: -0.822; 5: 1.35; 6: -0.568
